System: FYN
condition details: concentration: 1 μM, replicates: in singlicate; n = 1;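 also: KINOMEscan kinase panel screen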
Known %Inh of a selection of molecules
measurement type: %Inh (%)

> print(dat)
                                   molecule  value
1    Fc1cccc(CSc2nnc(-c3ccc4c(c3)CCO4)o2)c1      3
2  COc1cccc(C2=C(Nc3cccc(C(=O)O)c3)C(=O)NC2=O)c1     29
3  Cc1nc(N(C)[C@H]2CN(C(=O)CC#N)CC[C@H]2C)c2cc[nH]c2n1      2
4  COC(=O)c1c(-c2ccccc2)c2cc(Br)ccc2c(=O)n1Cc1ccc(NC(=O)CCC(=O)O)cc1      0
5  Cl.NS(=O)(=O)c1cccc(Nc2cc(-c3ccc(F)cc3)n[nH]2)c1      0
6  COc1ccc(CNC(=O)NC2CCN(c3ccnc(Nc4ccc(F)cc4)n3)C2)cc1 (stereo not drawn)     20
7  CCC(=O)c1c(-c2ccccc2)c2cc(Cl)ccc2c(=O)n1Cc1cc(S(C)(=O)=O)n(CC(F)F)n1      0
8    CN(C)c1cc(-c2ccc3c(N)n[nH]c3c2)nc(N)n1     11
9  O=C(NCCNc1ccnc(Nc2ccc(F)cc2)n1)Nc1ccc2c(c1)OCO2     34

###

Test system: FGFR2
condition details: concentration: 1 μM, replicates: in singlicate; n = 1
A collection of molecules and their measured %Inh
measurement type: %Inh (%)

> print(dat)
                                    molecule  measurement.type  unit.symbol  value
 1  COc1cccc(-n2cnc3c(N)ncnc32)c1 [SKF-97416]              %Inh            %      0
 2  COc1cc2nccc(Nc3ccc(OCc4ccc(NC(C)=O)cc4)cc3)c2cc1OC.Cl [GW440135]              %Inh            %     47
 3  COc1ccc(CNC(=O)NC2CCN(c3ccnc(Nc4ccc(F)cc4)n3)C2)cc1 (stereo not drawn) [GSK1379706]              %Inh            %     15
 4  COc1cc(Nc2nccc(N3CCC(NC(=O)C4COc5ccccc5O4)C3)n2)cc(OC)c1OC (stereo not drawn) [GSK1379761]              %Inh            %     30
 5     CCn1c(-c2ccoc2)nc2cnccc21 [SB-733887]              %Inh            %      0
 6  Nc1nccc2scc(-c3ccc4c(c3)CCN4C(=O)Cc3ccccc3)c12 [GSK2576924]              %Inh            %      0
 7  FC(F)(F)c1ccc(-c2ncn(CCCN3CCOCC3)c2-c2ccncc2)cc1 [SB-217780]              %Inh            %      0
 8  O=C1NC(=O)C(c2ccccc2)=C1Nc1cccc(O)c1 [SB-390534]              %Inh            %      0
 9  COc1cc2ncn(-c3cc(OCc4ccncc4)c(C(N)=O)s3)c2cc1OC [GSK336313]              %Inh            %      0
10  O=C(NCCNc1ccnc(Nc2ccc(F)cc2)n1)Nc1ccc2c(c1)OCO2 [GSK1379882]              %Inh            %      0
11  Cc1ccc(Oc2ccc(Nc3ncnc4cc[nH]c34)cc2C)cn1              %Inh            %      0
12  COC(=O)c1c(-c2ccccc2)c2cc(Br)ccc2c(=O)n1Cc1ccc(S(C)(=O)=O)cc1              %Inh            %     10
13  CCC(=O)c1c(-c2ccccc2)c2cc(Cl)ccc2c(=O)n1Cc1ccc(C(=O)O)cc1              %Inh            %      0
14  CCC(=O)c1c(-c2ccccc2)c2cc(Cl)ccc2c(=O)n1Cc1cc(S(C)(=O)=O)n(CCC(C)(C)O)n1              %Inh            %     22
15  CCC(=O)c1c(-c2ccccc2)c2cc(Cl)ccc2c(=O)n1Cc1cc(S(C)(=O)=O)n(CC(F)F)n1              %Inh            %      4
